- Experimental Target: HLA-DR4 (DRB1*0401) molecules (Homo sapiens, UniProt P01903+P01911, A100K/A169T/F76Y/I96L/K127E/L162R/M171V/N62H/P40V/Q125Y/R42H/S133A/S149N/S66Y/V115G/V209L/W38E)
- Test Details: Competitive binding assay with recombinant water-soluble HLA-DR4
- Test Context: Affinity for HLA-DR4 (DRB1*0401) molecules determined by competition with biotinylated competitor HA 306-318, biotinylated competitor HA306-318
Residues, ends and D or L forms follow the SMILES beside them.
Metric: IC50 (µM)

>>> measured_result("C[C@H](NC(=O)[C@H](C)NC(=O)[C@H](C)NC(=O)[C@H](C)NC(=O)[C@H](CCCCN)NC(=O)[C@H](C)NC(=O)[C@H](C)NC(=O)[C@H](C)NC(=O)[C@H](C)NC(=O)[C@H](C)NC(=O)[C@H](C)NC(=O)[C@H](Cc1ccc(O)cc1)NC(=O)[C@H](C)NC(=O)[C@H](CCCCN)NC(=O)[C@@H](N)CCC(=O)O)C(=O)O [compound 13] (H-EKAYAAAAAAKAAAA-OH)")
3.3

###

- Experimental Target: HLA-DR4 (DRB1*0401) molecules (Homo sapiens, UniProt P01903+P01911, A100K/A169T/F76Y/I96L/K127E/L162R/M171V/N62H/P40V/Q125Y/R42H/S133A/S149N/S66Y/V115G/V209L/W38E)
- Test Details: Competitive binding assay with recombinant water-soluble HLA-DR4
- Test Context: Affinity for HLA-DR4 (DRB1*0401) molecules determined by competition with biotinylated competitor HA 306-318, biotinylated competitor HA306-318
Residues, ends and D or L forms follow the SMILES beside them.
Metric: IC50 (µM)

>>> measured_result("C[C@H](N)C(=O)N[C@@H](CCCCN)C(=O)N[C@@H](CCC(=O)O)C(=O)N[C@@H](Cc1ccc(O)cc1)C(=O)N[C@@H](C)C(=O)N[C@@H](C)C(=O)N[C@@H](C)C(=O)N[C@@H](C)C(=O)N[C@@H](C)C(=O)N[C@@H](C)C(=O)N[C@@H](CCCCN)C(=O)N[C@@H](C)C(=O)N[C@@H](C)C(=O)N[C@@H](C)C(=O)N[C@@H](C)C(=O)O [compound 7] (H-AKEYAAAAAAKAAAA-OH)")
4.5
>>> measured_result("C[C@H](N)C(=O)N[C@@H](CCC(=O)O)C(=O)N[C@@H](Cc1ccc(O)cc1)C(=O)N[C@@H](C)C(=O)N[C@@H](CCCCN)C(=O)N[C@@H](C)C(=O)N[C@@H](C)C(=O)N[C@@H](C)C(=O)N[C@@H](C)C(=O)N[C@@H](C)C(=O)N[C@@H](C)C(=O)N[C@@H](C)C(=O)N[C@@H](C)C(=O)N[C@@H](C)C(=O)N[C@@H](C)C(=O)O")
3
>>> measured_result("C[C@H](N)C(=O)N[C@@H](CCC(=O)O)C(=O)N[C@@H](CCC(=O)O)C(=O)N[C@@H](Cc1ccc(O)cc1)C(=O)N[C@@H](C)C(=O)N[C@@H](C)C(=O)N[C@@H](C)C(=O)N[C@@H](C)C(=O)N[C@@H](C)C(=O)N[C@@H](C)C(=O)N[C@@H](CCCCN)C(=O)N[C@@H](C)C(=O)N[C@@H](C)C(=O)N[C@@H](C)C(=O)N[C@@H](C)C(=O)O")
2
>>> measured_result("C[C@H](N)C(=O)N[C@@H](C)C(=O)N[C@@H](CCC(=O)O)C(=O)N[C@@H](Cc1ccc(O)cc1)C(=O)N[C@@H](CCCCN)C(=O)N[C@@H](C)C(=O)N[C@@H](C)C(=O)N[C@@H](C)C(=O)N[C@@H](C)C(=O)N[C@@H](C)C(=O)N[C@@H](C)C(=O)N[C@@H](C)C(=O)N[C@@H](C)C(=O)N[C@@H](C)C(=O)N[C@@H](C)C(=O)O")
1.8
>>> measured_result("C[C@H](N)C(=O)N[C@@H](CCCCN)C(=O)N[C@@H](CCCCN)C(=O)N[C@@H](Cc1ccc(O)cc1)C(=O)N[C@@H](CCC(=O)O)C(=O)N[C@@H](C)C(=O)N[C@@H](C)C(=O)N[C@@H](C)C(=O)N[C@@H](C)C(=O)N[C@@H](C)C(=O)N[C@@H](C)C(=O)N[C@@H](C)C(=O)N[C@@H](C)C(=O)N[C@@H](C)C(=O)N[C@@H](C)C(=O)O")
2.2
>>> measured_result("C[C@H](NC(=O)[C@H](C)NC(=O)[C@H](C)NC(=O)[C@H](C)NC(=O)[C@H](CCCCN)NC(=O)[C@H](C)NC(=O)[C@H](C)NC(=O)[C@H](C)NC(=O)[C@H](C)NC(=O)[C@H](C)NC(=O)[C@H](C)NC(=O)[C@H](Cc1ccc(O)cc1)NC(=O)[C@H](CCCCN)NC(=O)[C@H](C)NC(=O)[C@@H](N)CCC(=O)O)C(=O)O [compound 18] (H-EAKYAAAAAAKAAAA-OH)")
4.4
>>> measured_result("C[C@H](N)C(=O)N[C@@H](C)C(=O)N[C@@H](CCC(=O)O)C(=O)N[C@@H](Cc1ccc(O)cc1)C(=O)N[C@@H](C)C(=O)N[C@@H](C)C(=O)N[C@@H](C)C(=O)N[C@@H](C)C(=O)N[C@@H](C)C(=O)N[C@@H](C)C(=O)N[C@@H](CCCCN)C(=O)N[C@@H](C)C(=O)N[C@@H](C)C(=O)N[C@@H](C)C(=O)N[C@@H](C)C(=O)O")
3.2

// data source = patent US9066905B2
